Quick list: % Inhibition per entry.
tested on: P. falciparum stage V gametocytes; set-up: BacTiter-Glo ATP luminescence viability of purified stage V gametocytes in 384-well plates, per cent inhibition versus DMSO; details: 48 h, 5 µM; inhibitor
The whole screen tested about 13,000 compounds, of which about 3,200 (25%) showed an effect of 50% or more. This is one part of the list.
Reply numerically in %, unit not repeated.

Below, each entry is followed by its recorded % Inhibition result.
O=C(Cc1c[nH]cn1)Nc1cccc(-c2ccc(-c3nc4cc(C(F)(F)F)ccc4[nH]3)s2)c1 | 84.53
Cc1ccc2c(NN=Cc3ccc(N(C)C)cc3)cc(C)nc2c1 | -47.79
COC(=O)c1cccc(CNCc2ccc(-c3ccc(-c4nc5cc(C(F)(F)F)ccc5[nH]4)cc3)cc2)c1.O=C(O)C(F)(F)F | -38.93
CCOc1cc(C(=O)NCc2ccc(Cl)c(Cl)c2)ccc1-c1nc2ccc(Cl)cc2[nH]1 | 96.39
Cc1ccc2c(NN=Cc3cccc(Cl)c3)cc(C)nc2c1 | 91.21
Cc1ccc2[nH]c(-c3ccc(C(=O)NCc4ccc(Cl)c(Cl)c4)cc3)nc2c1C | 11.51

Entry CCOc1cc(C(=O)NCc2cc(Cl)cc(Cl)c2)ccc1-c1nc2ccc(Cl)cc2[nH]1 , % Inhibition reported as -8.665

Entry Cc1cc(NN=Cc2cccc(Cl)c2)c2ccccc2n1 , % Inhibition reported as -14.77
